- tested_on: human LPA1 receptor (Homo sapiens, UniProt Q92633)
- Construct: TEV protease site; Gal4-VP16 transcription factor
- Sequence (Q92633 whole entry, the tested form may be a part): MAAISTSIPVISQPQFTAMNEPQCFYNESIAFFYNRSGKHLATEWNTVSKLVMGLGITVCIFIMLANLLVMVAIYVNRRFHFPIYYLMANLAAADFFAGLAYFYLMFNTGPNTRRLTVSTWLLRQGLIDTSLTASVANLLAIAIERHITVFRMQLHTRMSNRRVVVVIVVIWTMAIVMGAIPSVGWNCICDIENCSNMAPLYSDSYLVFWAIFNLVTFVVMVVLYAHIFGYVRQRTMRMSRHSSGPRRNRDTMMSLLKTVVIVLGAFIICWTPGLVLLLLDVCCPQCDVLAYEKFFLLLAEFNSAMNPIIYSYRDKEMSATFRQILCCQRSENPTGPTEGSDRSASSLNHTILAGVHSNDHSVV
- test: Beta-arrestin recruitment assay to determine IC50 values for human LPAR1
- test_context: Tango EDG2-bla U2OS cells, antagonist assay, LPA 18:1 500 nM final
reported_endpoint: IC50

Please review the entries below; each comes with its answer.
compound="COc1cc(Cl)ncc1NC(=O)C1(c2ccccc2C(C)C)CN(CC(=O)O)C1 [Example 18-6]" tested_on="human LPA1 receptor (Homo sapiens, UniProt Q92633)" result="128 nM"
compound="COc1cc(Cl)ncc1NC(=O)C1(c2ccccc2C(C)C)CN(C(=O)NCC(=O)O)C1 [Example 22-12]" tested_on="human LPA1 receptor (Homo sapiens, UniProt Q92633)" result="431 nM"
compound="COc1cc(Cl)ncc1NC(=O)C1(c2ccccc2C(C)C)CN(C(=O)c2cc(O)no2)C1 [Example 19-5]" tested_on="human LPA1 receptor (Homo sapiens, UniProt Q92633)" result="270 nM"

Ask | Test system human LPA1 receptor (Homo sapiens, UniProt Q92633); read-out IC50; what value for COc1cc(Cl)ncc1NC(=O)C1(c2ccccc2C(C)C)CN(c2ncc(F)cn2)C1 [Example 24-9] ?
Reply | 8 nM
